Listing: Plasma glucose concentration 0.5 h of selected molecules
test system: diabetic rats; test: Assay for inhibitory effects on blood glucose level increase in rats (liquid meal tolerance test); type: in vivo, rat; details: 0.5 hour after the drug administration, test compound 1 mg/kg orally, liquid meal 17.25 kcal/kg, mean±S.E.
Give the value in mg/dL but do not write mg/dL after it.

Reference set (2 entries):
structure.smiles.string: CC(C)c1[nH]nc(O[C@@H]2O[C@H](CO)[C@@H](O)[C@H](O)[C@H]2O)c1Cc1ccc(OCCCNS(C)(=O)=O)cc1
system: diabetic rats
Plasma glucose concentration 0.5 h [mg/dL]: 145

structure.smiles.string: CC(C)c1[nH]nc(O[C@@H]2O[C@H](CO)[C@@H](O)[C@H](O)[C@H]2O)c1Cc1ccc(OCCCNCc2cccnc2)cc1
system: diabetic rats
Plasma glucose concentration 0.5 h [mg/dL]: 141

Query :: Find the recorded Plasma glucose concentration 0.5 h belonging to Cc1cc(OCCCNC(=N)N)ccc1Cc1c(O[C@@H]2O[C@H](CO)[C@@H](O)[C@H](O)[C@H]2O)n[nH]c1C(C)C and report it.
Result :: 200

----------
molecular target: human SGLT1 (Homo sapiens); assay: Assay for inhibitory effects on human SGLT1 activity (uptake of methyl-α-D-glucopyranoside in CS1-5-11D cells); conditions: CHO-K1 cells stably expressing human SGLT1 (CS1-5-11D); 1 mM α-MG uptake, 37° C., 1 hour
# IC50 per entry

Field: example entries. Status: answers known.
compound: Cc1cc(OCCNC(=O)NC(C)(C)CO)ccc1Cc1c(O[C@@H]2O[C@H](CO)[C@@H](O)[C@H](O)[C@H]2O)n[nH]c1C(C)C [Example 33]
experimental.result: 65 nM
//
compound: Cc1cc(OCCNCC(N)=O)ccc1Cc1c(O[C@@H]2O[C@H](CO)[C@@H](O)[C@H](O)[C@H]2O)n[nH]c1C(C)C [Example 49]
experimental.result: 148 nM
//
compound: CC(C)c1[nH]nc(O[C@@H]2O[C@H](CO)[C@@H](O)[C@H](O)[C@H]2O)c1Cc1ccc(OCCCNS(C)(=O)=O)cc1 [Example 10]
experimental.result: 169 nM
//
compound: Cc1cc(OCCCNC(CO)CO)ccc1Cc1c(O[C@@H]2O[C@H](CO)[C@@H](O)[C@H](O)[C@H]2O)n[nH]c1C(C)C [Example 59]
experimental.result: 71 nM

Query :: Could you tell me which IC50 is on file for Cc1cc(OCCCNC(C)(C)C(N)=O)ccc1Cc1c(O[C@@H]2O[C@H](CO)[C@@H](O)[C@H](O)[C@H]2O)n[nH]c1C(C)C [Example 51] ?
Result :: 22 nM

Query :: What measured IC50 goes with Cc1cc(OCCCNC(C)(C)CO)ccc1Cc1c(O[C@@H]2O[C@H](CO)[C@@H](O)[C@H](O)[C@H]2O)n[nH]c1C(C)C [Example 57] ?
Result :: 43 nM

----------
Biological target: human SGLT1 (Homo sapiens, UniProt P13866)
Sequence (P13866 1-664): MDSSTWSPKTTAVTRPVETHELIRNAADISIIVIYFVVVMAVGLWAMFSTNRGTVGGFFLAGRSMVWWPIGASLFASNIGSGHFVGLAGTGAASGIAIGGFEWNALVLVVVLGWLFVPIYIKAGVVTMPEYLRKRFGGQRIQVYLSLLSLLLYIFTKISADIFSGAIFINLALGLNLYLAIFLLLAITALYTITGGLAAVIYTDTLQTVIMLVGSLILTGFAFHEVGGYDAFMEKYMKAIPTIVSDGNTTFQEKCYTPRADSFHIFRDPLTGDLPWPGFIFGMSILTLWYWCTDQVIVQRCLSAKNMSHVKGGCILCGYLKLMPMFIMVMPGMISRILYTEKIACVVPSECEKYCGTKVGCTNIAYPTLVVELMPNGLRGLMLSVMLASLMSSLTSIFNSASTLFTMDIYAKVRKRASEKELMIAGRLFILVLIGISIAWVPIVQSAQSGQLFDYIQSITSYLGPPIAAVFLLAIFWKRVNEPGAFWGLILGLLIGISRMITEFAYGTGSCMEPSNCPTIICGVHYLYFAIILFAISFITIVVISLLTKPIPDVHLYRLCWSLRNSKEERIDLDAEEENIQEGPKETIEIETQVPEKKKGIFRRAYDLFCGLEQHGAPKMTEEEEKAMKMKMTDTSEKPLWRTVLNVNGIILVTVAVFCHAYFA
Experiment: Assay for inhibitory effects on human SGLT1 activity (uptake of methyl-α-D-glucopyranoside in CS1-5-11D cells)
Details: CHO-K1 cells stably expressing human SGLT1 (CS1-5-11D); 1 mM α-MG uptake, 37° C., 1 hour
Description: Assay for Inhibitory Effects on Human SGLT1 Activity 1) Cloning and Construction of the Vector Expressing Human SGLT1 […] The expression vector of human SGLT1 was digested by Sca I into a linear DNA. […] Neomycin resistant cell lines were selected by culture in the medium containing G418 (1 mg/mL, LIFE TECHNOLOGIES), and then the activity against the uptake of methyl-α-D-glucopyranoside was measured by the method described below. […]
Item-by-item account of pIC50
Hey, just a heads up that pIC50 is the negative log base 10 of the concentration in molar.

Consider the worked cases shown below.
molecule: Cc1cc(OCCCNC(=O)NC(C)(C)CO)ccc1Cc1c(O[C@@H]2O[C@H](CO)[C@@H](O)[C@H](O)[C@H]2O)n[nH]c1C(C)C [Example 29]
experimental.result: 7.72

molecule: CC(C)c1[nH]nc(O[C@@H]2O[C@H](CO)[C@@H](O)[C@H](O)[C@H]2O)c1Cc1ccc(OCCCNC(=O)NC(C)(CO)CO)cc1 [Example 21]
experimental.result: 6.90

molecule: Cc1cc(OCCCN)ccc1Cc1c(O[C@@H]2O[C@H](CO)[C@@H](O)[C@H](O)[C@H]2O)n[nH]c1C(C)C [Example 9]
experimental.result: 7.38

molecule: Cc1cc(OCCCNC(=O)NC(C)(CO)CO)ccc1Cc1c(O[C@@H]2O[C@H](CO)[C@@H](O)[C@H](O)[C@H]2O)n[nH]c1C(C)C [Example 28]
experimental.result: 7.05

molecule: Cc1cc(OCCNCCO)ccc1Cc1c(O[C@@H]2O[C@H](CO)[C@@H](O)[C@H](O)[C@H]2O)n[nH]c1C(C)C [Example 63]
experimental.result: 6.49

The record that follows has no pIC50 shown yet.
Query :: Could you tell me which pIC50 is on file for Cc1cc(OCCNC(=O)NC(C)(CO)CO)ccc1Cc1c(O[C@@H]2O[C@H](CO)[C@@H](O)[C@H](O)[C@H]2O)n[nH]c1C(C)C [Example 32] ?
Result :: 6.95
